Where these numbers come from: PubChem BioAssay (NCI)

system: HCC-2998 colon; test: NCI tumour cell line growth inhibition, 48 h
metric name: TGI

[[record]]
molecule = "CC(C)CC(NC(=O)OCc1ccccc1)C(=O)NCCCCC(N)C(=O)NC(CCCCNC(=O)C(CC(C)C)NC(=O)OCc1ccccc1)C(=O)NC(CCCCNC(=O)C(CC(C)C)NC(=O)OCc1ccccc1)C(=O)NC(CCCCNC(=O)C(CC(C)C)NC(=O)OCc1ccccc1)C(=O)NC(CCCCNC(=O)C(CC(C)C)NC(=O)OCc1ccccc1)C(=O)NC(CCCCNC(=O)C(CC(C)C)NC(=O)OCc1ccccc1)C(=O)O (stereo not drawn)"
result = "> 100 µM"

[[record]]
molecule = "NC(=S)Nc1nnc(-c2ccc(-c3nnc(NC(N)=S)o3)cc2)o1"
result = "> 100 µM"

[[record]]
molecule = "C=C1C(C2(C)C=CC(=O)OC3(C)COC(=O)CC32)C(OC=O)C(OC(=O)C(O)C(C)CC)C2(C)C(c3ccoc3)CC(OC(C)=O)C12O (stereo not drawn)"
result = "> 100 µM"


* * *

test system: ACHN renal; test: NCI tumour cell line growth inhibition, 48 h
Here the recorded GI50 is given for each entry.
metric name: GI50

[[record]]
smiles = "Cc1cccc(Oc2ccc(Nc3ncnc4ccc(NC(=O)CN5CCN(C)CC5)cc34)cc2Cl)c1"
subject_of_test = "ACHN renal"
result = "655 nM"

[[record]]
smiles = "CCC(=O)Nc1ccc2c(c1)CN1C(=O)c3ccccc3C1=N2"
subject_of_test = "ACHN renal"
result = "> 100000 nM"

[[record]]
smiles = "CCCN1C(=O)/C(=C/c2ccc(O)cc2)SC1=Nc1ccccc1"
subject_of_test = "ACHN renal"
result = "18200 nM"

[[record]]
smiles = "CCC[C@H](Nc1nc(-c2ccc(NC(=O)NCC)c(OC)c2)ncc1C)c1cccnc1"
subject_of_test = "ACHN renal"
result = "72.1 nM"

[[record]]
smiles = "C=C1C(=O)O[C@H]2[C@H]1CC/C(Cn1cc(Cn3ccc4cc(Cl)ccc43)nn1)=C\\CC[C@@]1(C)O[C@@H]21"
subject_of_test = "ACHN renal"
result = "1240 nM"

[[record]]
smiles = "C[C@]12CC[C@H]3[C@@H](CC=C4C[C@@H](O)CC[C@@]43C)[C@@H]1C/C(=C\\c1cccc(OCCCn3ccnc3)c1)[C@@H]2O"
subject_of_test = "ACHN renal"
result = "13900 nM"

[[record]]
smiles = "COc1cc2c(cc1OCCCCCN1CCN(c3cc(=O)oc4c(C)c(OC)ccc34)CC1)N=C[C@@H]1CCCN1C2=O"
subject_of_test = "ACHN renal"
result = "43.4 nM"

[[record]]
smiles = "CCN(CC)CCCN1C(=O)c2c(c(C)c3c(oc4cc(O)ccc43)c2C)C1=O"
subject_of_test = "ACHN renal"
result = "1680 nM"


* * *

A collection of compounds and their measured TGI
system: PC-3 prostate; experiment: NCI tumour cell line growth inhibition, 48 h
metric name: TGI (µM)

[[record]]
compound = "OC(c1ccc(-c2ccccc2)cc1)(c1ccc(-c2ccccc2)cc1)c1ccc(-c2ccccc2)cc1"
metric_name = "TGI"
units_symbol = "µM"
relation_qualifier = ">"
result = 100

[[record]]
compound = "O=C(/C=C/c1ccc2c(c1)OCO2)c1ccccc1"
metric_name = "TGI"
units_symbol = "µM"
relation_qualifier = "="
result = 58.4

[[record]]
compound = "CCOC(=O)c1c(-c2ccc(Cl)cc2)c(C#N)c(=S)n(C2OC(CO)C(O)C(O)C2O)c1-c1ccccc1 (stereo not drawn)"
metric_name = "TGI"
units_symbol = "µM"
relation_qualifier = "="
result = 50.4

[[record]]
compound = "COc1ccc2c(c1)-c1c(c3ccccc3n1CCN1CCCCC1)CC2"
metric_name = "TGI"
units_symbol = "µM"
relation_qualifier = ">"
result = 87.7

[[record]]
compound = "CCN(CC)CCCC(C)N/C(c1cccc(OC)c1)=c1\\c(=O)[nH]n(-c2c3ccccc3nc3ccccc23)c(=O)\\c1=C(/NC(C)CCCN(CC)CC)c1cccc(OC)c1 (stereo not drawn)"
metric_name = "TGI"
units_symbol = "µM"
relation_qualifier = "="
result = 4.97

[[record]]
compound = "CC(=O)O[C@H]1C(=O)[C@@]2(C)[C@H]([C@H](OC(=O)c3ccccc3)[C@]3(O)C[C@H](OC(=O)[C@H](OC(=O)CCC(=O)OC4CCC(S/N=C(N)/N=C(\\N)N(C)C)CC4)[C@@H](NC(=O)c4ccccc4)c4ccccc4)C(C)=C1C3(C)C)[C@]1(OC(C)=O)CO[C@@H]1C[C@@H]2O (stereo partly drawn)"
metric_name = "TGI"
units_symbol = "µM"
relation_qualifier = ">"
result = 50

[[record]]
compound = "C#CCOC(=O)C(N)CS (stereo not drawn)"
metric_name = "TGI"
units_symbol = "µM"
relation_qualifier = ">"
result = 100

[[record]]
compound = "N#Cc1c(SCc2ccccc2)nc2[nH]c(=S)[nH]c(=S)c2c1-c1ccco1"
metric_name = "TGI"
units_symbol = "µM"
relation_qualifier = "="
result = 20.5


* * *

system: A498 renal; assay: NCI tumour cell line growth inhibition, 48 h
Item-by-item account of TGI
metric name: TGI

[[record]]
compound = "CCn1cc(C(=O)O)c(=O)c2cc(F)c(N3CCN(Cn4c(O)c(N=NC(=O)c5ccncc5)c5cc(Cl)ccc54)CC3)cc21"
result = "> 100 µM"

[[record]]
compound = "CCC(C)C(NC(=O)C(CCCCN)NC(=O)C(NC(=O)C(CCC(N)=O)NC(=O)C(CCCNC(=N)N)NC(C)=O)C(C)CC)C(=O)NC(Cc1c[nH]c2ccccc12)C(=O)NC(Cc1ccccc1)C(=O)NC(CCC(N)=O)C(=O)NC(CC(N)=O)C(=O)NC(CCCNC(=N)N)C(=O)NC(CCCNC(=N)N)C(=O)NC(CCSC)C(=O)NC(CCCCN)C(=O)NC(Cc1c[nH]c2ccccc12)C(=O)NC(CCCCN)C(=O)NC(CCCCN)C(N)=O (stereo not drawn)"
result = "> 50 µM"

[[record]]
compound = "CC(=O)/C(=C/N1C(=O)CC(=O)NC1=S)C(=O)Nc1ccccc1C"
result = "> 100 µM"


* * *

test system: OVCAR-5 ovarian; experiment: NCI tumour cell line growth inhibition, 48 h
metric name: TGI

[[record]]
smiles = "Cc1c(C(=O)Nc2ccc(Cl)c(C(F)(F)F)c2)oc2cc(O)ccc2/c1=N\\NC(N)=S"
metric_name = "TGI"
result = "> 100 µM"

[[record]]
smiles = "NC(=Nc1ccc(Cl)c(Cl)c1)c1ccccc1N"
metric_name = "TGI"
result = "> 100 µM"

[[record]]
smiles = "C=CCNC(NCC=C)=C(C(Cl)=C(Cl)Cl)[N+](=O)[O-]"
metric_name = "TGI"
result = "> 100 µM"

[[record]]
smiles = "Nc1c(C(=O)Nc2cccc3ccccc23)sc2nc3c(cc12)CCCCC3"
metric_name = "TGI"
result = "> 50 µM"


* * *

The entries below come with measured TGI values attached.
test system: NCI-H226 lung; assay: NCI tumour cell line growth inhibition, 48 h
metric name: TGI

[[record]]
molecule = "Cc1cc2c(cc1C)[n+](=O)c(C(=O)c1cccs1)c(C(F)(F)F)n2[O-]"
subject_of_test = "NCI-H226 lung"
metric_name = "TGI"
result = "50 µM"

[[record]]
molecule = "C=CCN1C(=O)N/C(=C\\c2ccc(Cl)cc2)C1=O"
subject_of_test = "NCI-H226 lung"
metric_name = "TGI"
result = "> 100 µM"

[[record]]
molecule = "OC1C=C2C3CN(Cc4cc5c(cc43)OCO5)[C@H]2C[C@@H]1O (some centres undefined)"
subject_of_test = "NCI-H226 lung"
metric_name = "TGI"
result = "> 100 µM"

[[record]]
molecule = "O=c1c2c([nH]c3nccn13)CCCC2"
subject_of_test = "NCI-H226 lung"
metric_name = "TGI"
result = "> 10 µM"

[[record]]
molecule = "Cc1cc(C)n(C(=O)C(C)Sc2nnc(SC(C)C(=O)n3nc(C)cc3C)s2)n1 (centres undefined)"
subject_of_test = "NCI-H226 lung"
metric_name = "TGI"
result = "> 100 µM"

[[record]]
molecule = "CCN(CC)/C(=C\\Cl)Nc1ccccn1"
subject_of_test = "NCI-H226 lung"
metric_name = "TGI"
result = "> 100 µM"

[[record]]
molecule = "CN1CCN(Cc2ccc(NC(=O)c3[nH]ncc3Nc3ccnc4ccsc34)cc2)CC1"
subject_of_test = "NCI-H226 lung"
metric_name = "TGI"
result = "13.4 µM"

[[record]]
molecule = "O=C1CCC(NC(=O)Cc2ccc(O)cc2)C(=O)N1 (centres undefined)"
subject_of_test = "NCI-H226 lung"
metric_name = "TGI"
result = "> 2500 µM"

[[record]]
molecule = "CCCCCCCCO/N=C\\c1c2c(O)c3c(O)c(C)c4c(c3c1O)C(=O)C(C)(O/C=C\\C(OC)C(C)C(OC(C)=O)C(C)C(O)C(C)C(O)C(C)/C=C\\C=C(\\C)C(=O)N2)O4 (centres undefined)"
subject_of_test = "NCI-H226 lung"
metric_name = "TGI"
result = "9.71 µM"

